measured.target: human GPR52 (Homo sapiens)
Construct: expressed in transfected cells; host or cells: CHO (dhfr-) cells
assay.remarks: Increased intracellular cAMP levels in human GPR52 expression CHO cells
Format: cell-based
test.context: 1 μM test compound, 30 min at 37° C., human GPR52 expression CHO (dhfr-) cells; 100% = cAMP level with 1 μM Reference Example 136, 0% = DMSO
metric.name: GPR52 agonist activity (%)
Just the number please, in %, no unit attached.

# example entries with known answers
1. O=C(NCCO)c1cccc(-c2cncc3cc(Cc4cccc(C(F)(F)F)c4)oc23)c1 83
2. NC(=O)CNC(=O)c1cccc(-c2cccc3sc(Cc4cccc(C(F)(F)F)c4)nc23)c1 80
3. CC(C)OCCNC(=O)c1cccc(-c2cccc3cc(Cc4cc(F)cc(Cl)c4)sc23)c1 79
4. COCCNC(=O)c1cccc(-c2cccc3cc(Cc4cc(F)cc(Cl)c4)sc23)c1 89
5. O=C(NCCO)c1cccc(-c2cccc3cc(Cc4cc(F)cc(Cl)c4)sc23)n1 62
6. N#CCCNC(=O)c1cccc(-c2cccc3nn(Cc4ccc(F)c(Cl)c4)cc23)c1 75

Now examine the next entry.
q: Report GPR52 agonist activity (%) for O=C(NCCO)c1cccc(-c2ccnc3cc(Cc4cccc(C(F)(F)F)c4)sc23)c1 please.
a: 93

---

measured.target: human GPR52 (Homo sapiens)
Construct: expressed in transfected cells; host or cells: CHO (dhfr-) cells
assay.remarks: Increased intracellular cAMP levels in human GPR52 expression CHO cells
Assay type: cell-based
test.context: 1 μM test compound, 30 min at 37° C., human GPR52 expression CHO (dhfr-) cells; 100% = cAMP level with 1 μM Reference Example 136, 0% = DMSO
This section presents compounds with their documented GPR52 agonist activity (%) values.
Give the value; after it, write the unit.

q: Quick check: GPR52 agonist activity (%) of O=C(NCCO)c1cccc(-c2cccn3c(=O)n(Cc4cccc(C(F)(F)F)c4)nc23)c1 ?
a: 67%

q: # lookup: GPR52 agonist activity (%) of COCCNC(=O)c1cccc(-c2ccc(F)c3cc(Cc4cccc(S(C)(=O)=O)c4)sc23)c1
a: 80%

q: Look up GPR52 agonist activity (%) for this compound: NC(=O)CNC(=O)c1cccc(-c2cccc3c(F)c(Cc4cccc(C(F)(F)F)c4)sc23)c1
a: 113%

q: Look up GPR52 agonist activity (%) for this compound: NC(=O)CNC(=O)c1cccc(-c2ccc(F)c3cc(Cc4cccc(C(F)(F)F)c4)sc23)c1
a: 85%

---

GPR52 agonist activity (%) by entry:
measured.target: human GPR52 (Homo sapiens, UniProt Q9Y2T5)
Construct: expressed in transfected cells; host or cells: CHO (dhfr-) cells
Sequence (Q9Y2T5 whole entry): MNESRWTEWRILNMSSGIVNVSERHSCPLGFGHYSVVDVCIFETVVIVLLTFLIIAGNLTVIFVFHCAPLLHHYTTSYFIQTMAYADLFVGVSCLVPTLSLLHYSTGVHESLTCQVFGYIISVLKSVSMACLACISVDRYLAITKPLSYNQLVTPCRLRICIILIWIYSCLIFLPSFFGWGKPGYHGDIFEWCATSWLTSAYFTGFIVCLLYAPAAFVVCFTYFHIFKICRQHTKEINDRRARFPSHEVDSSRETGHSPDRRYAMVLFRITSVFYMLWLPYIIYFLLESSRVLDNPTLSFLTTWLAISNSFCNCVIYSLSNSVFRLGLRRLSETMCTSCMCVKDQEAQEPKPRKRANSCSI
assay.remarks: Increased intracellular cAMP levels in human GPR52 expression CHO cells
Type: cell-based
test.context: 1 μM test compound, 30 min at 37° C., human GPR52 expression CHO (dhfr-) cells; 100% = cAMP level with 1 μM Reference Example 136, 0% = DMSO
Form entry: value (%) — number only.

Field: example entries. Status: answers known.
1) N#CCCNC(=O)c1ccnc(-c2cccc3oc(Cc4cccc(C(F)(F)F)c4)cc23)c1 74
2) NC(=O)CNC(=O)c1cccc(-c2cccc3cc(Cc4ccc(F)c(Cl)c4)sc23)c1 90
3) CC(C)n1cc(Cc2cc3cccc(-c4cccc(C(=O)NCCO)c4)c3s2)ccc1=O 61
4) N#CCCNC(=O)c1cccc(-c2nccc3oc(Cc4cccc(C(F)(F)F)c4)cc23)c1 75
5) O=C(NCCO)c1cc(F)cc(-c2ccc(F)c3cc(Cc4cccc(C(F)(F)F)c4)sc23)c1 94

q: I am curious: what GPR52 agonist activity (%) value has been reported for O=C(NCCO)c1cccc(-c2cccc3oc(Cc4cccc(C(F)(F)F)c4)cc23)c1 ?
a: 82

q: Find the recorded GPR52 agonist activity (%) belonging to NC(=O)CNC(=O)c1cncc(-c2cccc3cc(Cc4cc(F)cc(Cl)c4)sc23)c1 and report it.
a: 81

q: Item under review: NC(=O)c1cccc(-c2cccc3cc(COc4cccc(C(F)(F)F)c4)sc23)c1 . Reported GPR52 agonist activity (%)?
a: 82

q: Record request: GPR52 agonist activity (%) value, item NC(=O)CNC(=O)c1cccc(-c2cccc3sc(Cc4cccc(C(F)(F)F)c4)cc23)c1
a: 108
